Assay overview: Tmax in female Sprague-Dawley rat at 100 mg/kg, po qd treated for 13 weeks consecutively measured after recovery period on day 91 by UP/LC/MS/MS analysis
Assay type: ADME, organism-based
Protocol conditions: in vivo, time 91 day
Measured property: Tmax (h)
// note: answer is a bare numeric in h

Give its Tmax value. Item: Cl.c1ccc2c(c1)nnn2CCCCN1CCN(c2nsc3ccccc23)CC1
2.5

* * *

Subject of test: 5-hydroxytryptamine receptor 2A (Homo sapiens, UniProt P28223)
Sequence (P28223 whole entry): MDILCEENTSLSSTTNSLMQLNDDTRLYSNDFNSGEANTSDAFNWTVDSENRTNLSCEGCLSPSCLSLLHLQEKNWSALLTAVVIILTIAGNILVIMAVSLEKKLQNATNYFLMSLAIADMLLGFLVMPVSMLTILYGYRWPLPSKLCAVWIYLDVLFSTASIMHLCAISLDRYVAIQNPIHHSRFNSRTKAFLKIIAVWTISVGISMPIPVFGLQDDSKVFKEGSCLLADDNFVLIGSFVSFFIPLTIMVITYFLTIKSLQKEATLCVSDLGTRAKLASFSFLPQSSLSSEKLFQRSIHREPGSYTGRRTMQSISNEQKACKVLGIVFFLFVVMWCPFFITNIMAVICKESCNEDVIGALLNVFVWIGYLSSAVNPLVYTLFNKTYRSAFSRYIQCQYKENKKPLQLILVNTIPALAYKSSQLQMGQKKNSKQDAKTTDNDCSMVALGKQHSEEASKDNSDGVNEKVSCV
Assay overview: Displacement of [3H]Ketanserin from recombinant human 5-HT2A receptor extracted from CHO cell membrane at 100 nM incubated for 60 mins by radioligand binding assay relative to control
Format: cell membranes
Protocol conditions: filed as antagonist
Kindly supply the reported inhibition values for the records listed here.
// note: answer is a bare numeric in %

Give its inhibition value. Item: Fc1ccc2c(C3CCN(CCCn4nnc5ccccc54)CC3)noc2c1
98.7

Give its inhibition value. Item: Cl.c1ccc2c(c1)nnn2CCCCN1CCN(c2nsc3ccccc23)CC1
99

Give its inhibition value. Item: Clc1cccc(N2CCN(CCCCn3nnc4ccccc43)CC2)c1
77.6

Give its inhibition value. Item: Fc1ccc2c(C3CCN(CCCCn4nnc5ccccc54)CC3)noc2c1
98.2

Give its inhibition value. Item: Fc1ccc2c(C3CCN(CCCn4nc5ccccc5n4)CC3)noc2c1
98.3

Give its inhibition value. Item: c1ccc2c(c1)nnn2OCCCN1CCN(c2nsc3ccccc23)CC1
100

Give its inhibition value. Item: c1ccc2nn(CCCCN3CCN(c4noc5ccccc45)CC3)nc2c1
84.9
